- Test system: Klebsiella aerogenes
- ASSAY OVERVIEW: Antibacterial activity against Klebsiella aerogenes assessed as growth inhibition after 18 hrs by serial dilution method
- Format: functional
REPORTED ENDPOINT: MIC

Worked examples follow.
# input Can you share its MIC? I mean this compound: O=C(O)C1=C(Cc2ccccc2)CS[C@@H]2[C@H](NC(=O)[C@H](O)c3ccccc3)C(=O)N12
# output 50 µg/mL

# input Can you share its MIC? I mean this compound: O=C(COc1ccccc1)N[C@@H]1C(=O)N2C(C(=O)O)=C(Cc3ccccc3)CS[C@H]12
# output > 500 µg/mL

# input Can you share its MIC? I mean this compound: CC1=C(C(=O)O)N2C(=O)[C@@H](NC(=O)[C@H](N)c3ccccc3)[C@H]2SC1 [CEPHALEXIN ANHYDROUS]
# output 5 µg/mL

***
# input Can you share its MIC? I mean this compound: CCSCC(=O)N[C@@H]1C(=O)N2C(C(=O)O)=C(Cc3ccccc3)CS[C@H]12
# output > 125 µg/mL

====

For each of the compounds below, state its MIC.
- Test system: Klebsiella aerogenes
- ASSAY OVERVIEW: Antibacterial activity against Klebsiella aerogenes assessed as growth inhibition after 18 hrs by serial dilution method
- Assay type: functional
Give bare numbers, in µg/mL.

Worked examples follow.
# input Can you share its MIC? I mean this compound: NC(C(=O)N[C@@H]1C(=O)N2C(C(=O)O)=C(Cc3cccnc3)CS[C@H]12)c1cccs1 (stereo partly drawn)
# output 5

# input Can you share its MIC? I mean this compound: O=C(Cc1cccs1)N[C@@H]1C(=O)N2C(C(=O)[O-])=C(C[n+]3ccccc3)CS[C@H]12 [CEPHALORIDINE]
# output 2.5

# input Can you share its MIC? I mean this compound: O=C(Cc1ccncc1)N[C@@H]1C(=O)N2C(C(=O)O)=C(Cc3ccccc3)CS[C@H]12
# output 100

Give one value of MIC per listed compound.
1. N[C@@H](C(=O)N[C@@H]1C(=O)N2C(C(=O)O)=C(Cc3cccnc3)CS[C@H]12)c1ccccc1
2. N[C@@H](C(=O)N[C@@H]1C(=O)N2C(C(=O)O)=C(Cc3ccccc3)CS[C@H]12)c1ccccc1
3. O=C(COc1ccccc1)N[C@@H]1C(=O)N2C(C(=O)O)=C(Cc3cccnc3)CS[C@H]12
4. O=C(Cn1ncnn1)N[C@@H]1C(=O)N2C(C(=O)O)=C(Cc3ccccc3)CS[C@H]12
5. O=C(O)C1=C(Cc2cccnc2)CS[C@@H]2[C@H](NC(=O)[C@H](O)c3ccccc3)C(=O)N12
6. O=C(Cc1ccncc1)N[C@@H]1C(=O)N2C(C(=O)O)=C(Cc3cccnc3)CS[C@H]12
7. O=C(CSc1ccncc1)N[C@@H]1C(=O)N2C(C(=O)O)=C(Cc3cccnc3)CS[C@H]12

# output
2.5
25
500
500
2.5
10
5

# input Can you share its MIC? I mean this compound: CCSCC(=O)N[C@@H]1C(=O)N2C(C(=O)O)=C(Cc3cccnc3)CS[C@H]12
# output 50

====

For each of the molecules below, state its MIC.
- Test system: Staphylococcus aureus
- ASSAY OVERVIEW: Antibacterial activity against Staphylococcus aureus Oxford assessed as growth inhibition after 18 hrs by serial dilution method
- Assay type: functional
Give bare numbers, in µg/mL.

Give one value of MIC per listed molecule.
1. O=C(O)CSCC(=O)N[C@@H]1C(=O)N2C(C(=O)O)=C(Cc3ccccc3)CS[C@H]12
2. N[C@@H](C(=O)N[C@@H]1C(=O)N2C(C(=O)O)=C(Cc3ccccc3)CS[C@H]12)C1CC1

# output
1: 5; 2: 5

Give one value of MIC per listed molecule.
1. O=C(Cc1cccs1)N[C@@H]1C(=O)N2C(C(=O)[O-])=C(C[n+]3ccccc3)CS[C@H]12
2. O=C(COc1ccccc1)N[C@@H]1C(=O)N2C(C(=O)O)=C(Cc3cccnc3)CS[C@H]12

# output
1. 0.02
2. 0.02

====

- System: Escherichia coli
- ASSAY OVERVIEW: Antibacterial activity against Escherichia coli assessed as growth inhibition after 18 hrs by serial dilution method
- Type: functional
REPORTED ENDPOINT: MIC (µg/mL)
Answers are plain numbers, in µg/mL.

Give one value of MIC per listed molecule.
1. O=C(O)C1=C(Cc2ccccc2)CS[C@@H]2[C@H](NC(=O)[C@H](O)c3ccccc3)C(=O)N12
2. O=C(O)C1=C(Cc2cccnc2)CS[C@@H]2[C@H](NC(=O)C(C(=O)Oc3ccccc3)c3cccs3)C(=O)N12 (stereo partly drawn)
3. NC(C(=O)N[C@@H]1C(=O)N2C(C(=O)O)=C(Cc3cccnc3)CS[C@H]12)c1cccs1 (stereo partly drawn)
4. N[C@@H](C(=O)N[C@@H]1C(=O)N2C(C(=O)O)=C(Cc3cccnc3)CS[C@H]12)c1ccccc1

# output
[125, 12.5, 12.5, 2.5]

Give one value of MIC per listed molecule.
1. O=C(COc1ccccc1)N[C@@H]1C(=O)N2C(C(=O)O)=C(Cc3cccnc3)CS[C@H]12
2. O=C(CSc1ccncc1)N[C@@H]1C(=O)N2C(C(=O)O)=C(Cc3cccnc3)CS[C@H]12

# output
500
25

====

- System: Klebsiella aerogenes
- ASSAY OVERVIEW: Antibacterial activity against Klebsiella aerogenes assessed as growth inhibition after 18 hrs by serial dilution method
- Assay type: functional
REPORTED ENDPOINT: MIC (µg/mL)
Answers are plain numbers, in µg/mL.

# input Can you share its MIC? I mean this compound: N[C@@H](C(=O)N[C@@H]1C(=O)N2C(C(=O)O)=C(Cc3cccnc3)CS[C@H]12)C1CC1
# output 250

# input Can you share its MIC? I mean this compound: N[C@@H](C(=O)N[C@@H]1C(=O)N2C(C(=O)O)=C(Cc3ccccc3)CS[C@H]12)c1ccc(O)cc1
# output 5

# input Can you share its MIC? I mean this compound: CC(=O)OCC1=C(C(=O)O)N2C(=O)[C@@H](NC(=O)Cc3cccs3)[C@H]2SC1 [CEPHALOTHIN]
# output 5

# input Can you share its MIC? I mean this compound: O=C(Cc1cccs1)N[C@@H]1C(=O)N2C(C(=O)O)=C(Cc3cccnc3)CS[C@H]12
# output 25

# input Can you share its MIC? I mean this compound: O=C(O)C1=C(Cc2cccnc2)CS[C@@H]2[C@H](NC(=O)C(C(=O)Oc3ccccc3)c3cccs3)C(=O)N12 (stereo partly drawn)
# output 12.5

Continue with the compound presented below.
# input Can you share its MIC? I mean this compound: NC(CC(=O)N[C@@H]1C(=O)N2C(C(=O)O)=C(Cc3cccnc3)CS[C@H]12)C1CC=CCC1 (mixture of isomers)
# output 125

====

- System: Staphylococcus aureus
- ASSAY OVERVIEW: Antibacterial activity against Staphylococcus aureus Oxford assessed as growth inhibition after 18 hrs by serial dilution method
- Type: functional
Lab note: cut-off is 0.1 µg/mL. Strictly less in MIC is condition met. Exactly 0.1 µg/mL or more is condition not met.

Check out these entries, answers already filled in.
# input Determine whether this molecule shows MIC lower than 0.1 µg/mL (ties excluded): O=C(O)C1=C(Cc2cccnc2)CS[C@@H]2[C@H](NC(=O)C(C(=O)Oc3ccccc3)c3cccs3)C(=O)N12 (some centres undefined)
# output condition not met

# input Determine whether this molecule shows MIC lower than 0.1 µg/mL (ties excluded): O=C(Cn1ncnn1)N[C@@H]1C(=O)N2C(C(=O)O)=C(Cc3ccccc3)CS[C@H]12
# output condition not met

# input Determine whether this molecule shows MIC lower than 0.1 µg/mL (ties excluded): C[C@@H](N)C(=O)N[C@@H]1C(=O)N2C(C(=O)O)=C(Cc3ccccc3)CS[C@H]12
# output condition not met

# input Determine whether this molecule shows MIC lower than 0.1 µg/mL (ties excluded): O=C(COc1ccccc1)N[C@@H]1C(=O)N2C(C(=O)O)=C(Cc3ccccc3)CS[C@H]12
# output condition met

# input Determine whether this molecule shows MIC lower than 0.1 µg/mL (ties excluded): CC1=C(C(=O)O)N2C(=O)[C@@H](NC(=O)[C@H](N)c3ccccc3)[C@H]2SC1 [CEPHALEXIN ANHYDROUS]
# output condition not met

***
# input Determine whether this molecule shows MIC lower than 0.1 µg/mL (ties excluded): O=C(O)C1=C(Cc2ccccc2)CS[C@@H]2[C@H](NC(=O)C(C(=O)Oc3ccccc3)c3ccccc3)C(=O)N12 (some centres undefined)
# output condition not met

# input Determine whether this molecule shows MIC lower than 0.1 µg/mL (ties excluded): NC(C(=O)N[C@@H]1C(=O)N2C(C(=O)O)=C(Cc3cccnc3)CS[C@H]12)c1cccs1 (some centres undefined)
# output condition not met

# input Determine whether this molecule shows MIC lower than 0.1 µg/mL (ties excluded): O=C(Cc1cccs1)N[C@@H]1C(=O)N2C(C(=O)O)=C(Cc3ccccc3)CS[C@H]12
# output condition met

====

For each of the compounds below, state its MIC.
- Tested on: Escherichia coli
- ASSAY OVERVIEW: Antibacterial activity against Escherichia coli assessed as growth inhibition after 18 hrs by serial dilution method
- Assay type: functional
Give bare numbers, in µg/mL.

Worked examples follow.
# input Write down the reported MIC of CCSCC(=O)N[C@@H]1C(=O)N2C(C(=O)O)=C(Cc3cccnc3)CS[C@H]12 , test system: Escherichia coli.
# output 50

# input Write down the reported MIC of O=C(Cc1cccs1)N[C@@H]1C(=O)N2C(C(=O)O)=C(Cc3cccnc3)CS[C@H]12 , test system: Escherichia coli.
# output 25

# input Write down the reported MIC of O=C(CSc1ccncc1)N[C@@H]1C(=O)N2C(C(=O)O)=C(Cc3ccccc3)CS[C@H]12 , test system: Escherichia coli.
# output 250

***
# input Write down the reported MIC of CC1=C(C(=O)O)N2C(=O)[C@@H](NC(=O)[C@H](N)c3ccccc3)[C@H]2SC1 [CEPHALEXIN ANHYDROUS] , test system: Escherichia coli.
# output 12.5
